Numbers sourced from ChEMBL document CHEMBL1132168.

- TARGET_OR_SYSTEM: 5-hydroxytryptamine receptor 2A (Rattus norvegicus, UniProt P14842)
- Sequence (P14842 whole entry): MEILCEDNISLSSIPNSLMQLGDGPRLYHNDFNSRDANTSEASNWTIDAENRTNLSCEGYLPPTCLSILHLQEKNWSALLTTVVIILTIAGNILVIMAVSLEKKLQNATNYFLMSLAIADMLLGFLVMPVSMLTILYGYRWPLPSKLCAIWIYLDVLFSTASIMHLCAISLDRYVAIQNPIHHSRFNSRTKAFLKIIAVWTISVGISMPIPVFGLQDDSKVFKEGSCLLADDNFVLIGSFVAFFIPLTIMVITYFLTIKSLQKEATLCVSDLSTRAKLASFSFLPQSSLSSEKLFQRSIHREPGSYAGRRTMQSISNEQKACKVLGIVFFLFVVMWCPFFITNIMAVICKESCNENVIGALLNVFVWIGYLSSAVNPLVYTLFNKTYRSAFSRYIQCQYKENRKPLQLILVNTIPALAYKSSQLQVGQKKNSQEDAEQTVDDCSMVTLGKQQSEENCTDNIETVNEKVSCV
- METHOD: Blocking 5-HT2A receptor-mediated contractions of rat tail artery
- Format: functional, tissue-based
- RUN_CONDITIONS: read-out: pA2 (converted)
MEASURED_PARAMETER: Kb (µM)

[
  {
    "COMPOUND": "CC(C)n1cc2c3c(cccc31)[C@H]1C=C(CO)CN(C)[C@@H]1C2.O=C(O)/C=C\\C(=O)O",
    "TARGET_OR_SYSTEM": "5-hydroxytryptamine receptor 2A (Rattus norvegicus, UniProt P14842)",
    "TEST_RESULT": 0.000724
  },
  {
    "COMPOUND": "CO[C@H]1CC[C@H](C(=O)OCC2=C[C@@H]3c4cccc5[nH]cc(c45)C[C@H]3N(C)C2)CC1.O=C(O)/C=C\\C(=O)O",
    "TARGET_OR_SYSTEM": "5-hydroxytryptamine receptor 2A (Rattus norvegicus, UniProt P14842)",
    "TEST_RESULT": 0.0575
  },
  {
    "COMPOUND": "COC1CCC(C(=O)OCC2=C[C@@H]3c4cccc5[nH]cc(c45)C[C@H]3N(C)C2)CC1.O=C(O)/C=C\\C(=O)O (some centres not stated)",
    "TARGET_OR_SYSTEM": "5-hydroxytryptamine receptor 2A (Rattus norvegicus, UniProt P14842)",
    "TEST_RESULT": 0.0479
  },
  {
    "COMPOUND": "CC(C)n1cc2c3c(cccc31)[C@H]1C[C@@H](CO)CN(C)[C@@H]1C2.O=C(O)/C=C\\C(=O)O",
    "TARGET_OR_SYSTEM": "5-hydroxytryptamine receptor 2A (Rattus norvegicus, UniProt P14842)",
    "TEST_RESULT": 0.00316
  },
  {
    "COMPOUND": "CN1CC(COC(=O)C2CCCC2)=C[C@@H]2c3cccc4[nH]cc(c34)C[C@H]21.O=C(O)/C=C\\C(=O)O",
    "TARGET_OR_SYSTEM": "5-hydroxytryptamine receptor 2A (Rattus norvegicus, UniProt P14842)",
    "TEST_RESULT": 0.049
  },
  {
    "COMPOUND": "CC(C)n1cc2c3c(cccc31)C1=C[C@@H](COC(=O)C3CCCC3)CN(C)[C@@H]1C2.O=C(O)/C=C\\C(=O)O",
    "TARGET_OR_SYSTEM": "5-hydroxytryptamine receptor 2A (Rattus norvegicus, UniProt P14842)",
    "TEST_RESULT": 0.00562
  },
  {
    "COMPOUND": "COC1CCC(C(=O)OCC2=C[C@@H]3c4cccc5c4c(cn5C(C)C)C[C@H]3N(C)C2)CC1.O=C(O)/C=C\\C(=O)O (some centres not stated)",
    "TARGET_OR_SYSTEM": "5-hydroxytryptamine receptor 2A (Rattus norvegicus, UniProt P14842)",
    "TEST_RESULT": 0.0115
  }
]
